EXPERIMENTAL TARGET: Nicotinic, human α4β2 (Homo sapiens, UniProt P17787+P43681)
ASSAY REMARKS: Competition binding, human α4β2 nicotinic receptor ([3H]nicotine)
RECORDED METRIC: Ki (µM)

INSERT INTO measurements (molecule, measurement) VALUES
  ('CC[C@@]12CCC[C@]1(NC)[C@H]1CC[C@@H]2C1', 26),
  ('CN[C@@]12CCC[C@@H]1[C@H]1CC[C@@H]2C1', 51),
  ('CCC12CCCC1(NC)C1CCC2C1 (stereo not drawn)', 34),
  ('CCCC12CCCC1(NC)C1CCC2C1 (stereo not drawn)', 29),
  ('CC[C@]12CCC[C@@]1(NC)[C@@H]1CC[C@H]2C1', 32),
  ('CN[C@]12CCC[C@H]1[C@@H]1CC[C@H]2C1', 33);

---

EXPERIMENTAL TARGET: Nicotinic, human α3β4 (Homo sapiens, UniProt P30926+P32297)
Construct: host or cells: CHO
ASSAY REMARKS: Competition binding, human α3β4 nicotinic receptor (CHO human α3β4 membranes)
pKi: −log10 of the molar value.
RECORDED METRIC: pKi

INSERT INTO results (compound, experimental_target, recorded_metric, measurement) VALUES
  ('CN[C@@]12CCC[C@@H]1[C@H]1CC[C@@H]2C1', 'Nicotinic, human α3β4 (Homo sapiens, UniProt P30926+P32297)', 'pKi', 4.10),
  ('CC[C@]12CCC[C@@]1(NC)[C@@H]1CC[C@H]2C1', 'Nicotinic, human α3β4 (Homo sapiens, UniProt P30926+P32297)', 'pKi', 4.28),
  ('CCCC12CCCC1(NC)C1CCC2C1 (centres unmarked)', 'Nicotinic, human α3β4 (Homo sapiens, UniProt P30926+P32297)', 'pKi', 4.14),
  ('CCC12CCCC1(NC)C1CCC2C1 (centres unmarked)', 'Nicotinic, human α3β4 (Homo sapiens, UniProt P30926+P32297)', 'pKi', 4.12),
  ('CC[C@@]12CCC[C@]1(NC)[C@H]1CC[C@@H]2C1', 'Nicotinic, human α3β4 (Homo sapiens, UniProt P30926+P32297)', 'pKi', 4.25);

---

EXPERIMENTAL TARGET: Nicotinic, human α7 (Homo sapiens, UniProt P36544)
RECORDED METRIC: Ki (µM)

INSERT INTO measurements (smiles_repr, measurement) VALUES
  ('CC[C@@]12CCC[C@]1(NC)[C@H]1CC[C@@H]2C1', 79);

---

Known Human Ganglion Ca Flux Imax of a selection of compounds
EXPERIMENTAL TARGET: Human Ganglion (SH-SY5Y cells) (Homo sapiens, UniProt P30532+P30926+P32297)
Construct: endogenous in cells; host or cells: SH-SY5Y human neuroblastoma cells
ASSAY REMARKS: Calcium flux inhibition, human ganglion (SH-SY5Y cells)
Format: cell-based
MEASUREMENT CONDITIONS: SH-SY5Y cells, nicotine 20 μM
RECORDED METRIC: Human Ganglion Ca Flux Imax (% inh)

INSERT INTO assay_data (compound, value_units, measurement) VALUES
  ('CN[C@@]12CCC[C@@H]1[C@H]1CC[C@@H]2C1', '% inh', 95),
  ('C[N+](C)(C)[C@]12CCC[C@H]1[C@@H]1CC[C@H]2C1', '% inh', 97),
  ('CCCCC12CCCC1(NC)C1CCC2C1 (centres unmarked)', '% inh', 93),
  ('CCCC12CCCC1(NC)C1CCC2C1 (centres unmarked)', '% inh', 98),
  ('CNC12CCCC1(CO)C1CCC2C1 (centres unmarked)', '% inh', 91),
  ('[2H]C([2H])NC12CCCC1(C([2H])([2H])[2H])C1CCC2C1 (centres unmarked)', '% inh', 99),
  ('CN[C@]12CCC[C@H]1[C@@H]1CC[C@H]2C1', '% inh', 95),
  ('CCC12CCCC1(NC)C1CCC2C1 (centres unmarked)', '% inh', 98);

---

EXPERIMENTAL TARGET: human α4β2 (HS) (Homo sapiens, UniProt P17787+P43681)
ASSAY REMARKS: Calcium flux inhibition, SH-EP1-human α4β2 treated at 29° C. (HS)
Format: cell-based
Protocol: SH-EP1-human α4β2 (Eaton et al., 2003), cell lines were obtained from Dr. Ron Lukas (Barrow Neurological Institute). […] Forty-eight hours prior to each experiment, cells were plated in 96 well black-walled, clear bottom plates (Corning, Corning, N.Y.) at 60-100,000 cells/well. […] Plates were transferred to a FLIPR Tetra fluorometric imaging plate reader (Molecular Devices) for addition of compound and monitoring of fluorescence (excitation 485 nm, emission 525 nm). […]
Threshold 400 nM. IC50 below it: label 1. IC50 at it or above: label 0.

INSERT INTO assay_data (molecule, assigned_class) VALUES
  ('CCC12CCCC1(NC)C1CCC2C1 (stereo not drawn)', 'label 0'),
  ('CC[C@]12CCC[C@@]1(NC)[C@@H]1CC[C@H]2C1', 'label 0'),
  ('CCCC12CCCC1(NC)C1CCC2C1 (stereo not drawn)', 'label 1'),
  ('CN[C@@]12CCC[C@@H]1[C@H]1CC[C@@H]2C1', 'label 1'),
  ('CN[C@]12CCC[C@H]1[C@@H]1CC[C@H]2C1', 'label 0'),
  ('CC[C@@]12CCC[C@]1(NC)[C@H]1CC[C@@H]2C1', 'label 0');

---

EXPERIMENTAL TARGET: Nicotinic, human α4β2 (Homo sapiens, UniProt P17787+P43681)
ASSAY REMARKS: Competition binding, human α4β2 nicotinic receptor ([3H]nicotine)
MEASUREMENT CONDITIONS: SH-EP1-Human α4β2 cell membranes, [3H]nicotine 2 nM; read-out: Human α4β2 Ki
RECORDED METRIC: Ki (µM)

INSERT INTO assay_data (compound, experimental_target, measurement) VALUES
  ('C[N+](C)(C)[C@@]12CCC[C@@H]1[C@H]1CC[C@@H]2C1', 'Nicotinic, human α4β2 (Homo sapiens, UniProt P17787+P43681)', 6.9),
  ('CNC12CCCC1(CO)C1CCC2C1 (stereo not drawn)', 'Nicotinic, human α4β2 (Homo sapiens, UniProt P17787+P43681)', 31),
  ('CN(C)[C@@]12CCC[C@@H]1[C@H]1CC[C@@H]2C1', 'Nicotinic, human α4β2 (Homo sapiens, UniProt P17787+P43681)', 20),
  ('C[N+](C)(C)[C@]12CCC[C@H]1[C@@H]1CC[C@H]2C1', 'Nicotinic, human α4β2 (Homo sapiens, UniProt P17787+P43681)', 8.6),
  ('CC[C@@]12CCC[C@]1(N(C)C)[C@H]1CC[C@@H]2C1', 'Nicotinic, human α4β2 (Homo sapiens, UniProt P17787+P43681)', 33),
  ('CC[C@]12CCC[C@@]1(N(C)C)[C@@H]1CC[C@H]2C1', 'Nicotinic, human α4β2 (Homo sapiens, UniProt P17787+P43681)', 64),
  ('[2H]C([2H])NC12CCCC1(C([2H])([2H])[2H])C1CCC2C1 (stereo not drawn)', 'Nicotinic, human α4β2 (Homo sapiens, UniProt P17787+P43681)', 26),
  ('CN(C)[C@]12CCC[C@H]1[C@@H]1CC[C@H]2C1', 'Nicotinic, human α4β2 (Homo sapiens, UniProt P17787+P43681)', 47),
  ('CCCCC12CCCC1(NC)C1CCC2C1 (stereo not drawn)', 'Nicotinic, human α4β2 (Homo sapiens, UniProt P17787+P43681)', 73);

---

EXPERIMENTAL TARGET: human α4β2 (LS) (Homo sapiens, UniProt P17787+P43681)
ASSAY REMARKS: Calcium flux inhibition, SH-EP1-human α4β2 maintained at 37° C. (LS)
Type: cell-based
Each entry below carries its recorded log10 of IC50.
RECORDED METRIC: log10 of IC50 (log10 of the value in nM)

INSERT INTO assay_data (compound, experimental_target, measurement) VALUES
  ('CC[C@]12CCC[C@@]1(NC)[C@@H]1CC[C@H]2C1', 'human α4β2 (LS) (Homo sapiens, UniProt P17787+P43681)', 3.84),
  ('CCC12CCCC1(NC)C1CCC2C1 (stereo not drawn)', 'human α4β2 (LS) (Homo sapiens, UniProt P17787+P43681)', 2.23),
  ('CCCC12CCCC1(NC)C1CCC2C1 (stereo not drawn)', 'human α4β2 (LS) (Homo sapiens, UniProt P17787+P43681)', 2.23),
  ('CN[C@@]12CCC[C@@H]1[C@H]1CC[C@@H]2C1', 'human α4β2 (LS) (Homo sapiens, UniProt P17787+P43681)', 2.58),
  ('CN[C@]12CCC[C@H]1[C@@H]1CC[C@H]2C1', 'human α4β2 (LS) (Homo sapiens, UniProt P17787+P43681)', 2.53),
  ('CC[C@@]12CCC[C@]1(NC)[C@H]1CC[C@@H]2C1', 'human α4β2 (LS) (Homo sapiens, UniProt P17787+P43681)', 3.70);
